Collected IC50 values appear next to each entry.
target: SGLT1 (Homo sapiens)
Sequence (P13866 1-664): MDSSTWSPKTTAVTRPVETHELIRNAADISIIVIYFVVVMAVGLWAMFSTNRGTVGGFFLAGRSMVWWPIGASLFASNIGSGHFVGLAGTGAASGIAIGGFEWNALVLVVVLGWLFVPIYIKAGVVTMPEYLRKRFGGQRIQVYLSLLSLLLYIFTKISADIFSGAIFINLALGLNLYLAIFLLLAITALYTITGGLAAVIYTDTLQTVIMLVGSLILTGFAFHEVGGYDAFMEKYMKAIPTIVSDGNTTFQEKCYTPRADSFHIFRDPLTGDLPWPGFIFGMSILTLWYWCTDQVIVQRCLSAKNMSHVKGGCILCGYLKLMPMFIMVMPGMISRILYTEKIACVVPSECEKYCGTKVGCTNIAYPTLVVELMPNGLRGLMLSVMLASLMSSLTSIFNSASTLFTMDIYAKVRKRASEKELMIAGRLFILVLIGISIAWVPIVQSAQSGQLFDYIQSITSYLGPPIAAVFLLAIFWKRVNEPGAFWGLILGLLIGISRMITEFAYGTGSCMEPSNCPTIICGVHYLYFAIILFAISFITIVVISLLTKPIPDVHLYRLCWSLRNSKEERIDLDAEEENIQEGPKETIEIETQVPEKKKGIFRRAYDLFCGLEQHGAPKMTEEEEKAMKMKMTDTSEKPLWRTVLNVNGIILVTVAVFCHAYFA
protocol_notes: Cell-based 14C-AMG uptake inhibition assay, CHOK1 cells expressing human SGLT1
Design: expressed in transfected cells
run_conditions: CHOK1 cells stably expressing human SGLT1, 0.5 mM 14C-AMG, 30 min uptake; read-out: hSGLT1 (IC50, nM) [A]
Your answer is read as nM, so omit the unit and give the number.

**Q:** Suppose we examine the molecule OC[C@@H]1O[C@H](n2cc(Cc3ccc(C4CC4)cc3)c3c(F)cccc32)[C@@H](O)[C@H](O)[C@H]1O ; what IC50 value has been reported?
**A:** 270

Moving on to the next molecule.
**Q:** Item under review: CCc1ccc(Cc2cn([C@@H]3O[C@H](CO)[C@@H](O)[C@H](O)[C@H]3O)c3ccccc23)cc1 . Reported IC50?
**A:** 1700

----------
target: SGLT2 (Homo sapiens)
Sequence (P31639 whole entry): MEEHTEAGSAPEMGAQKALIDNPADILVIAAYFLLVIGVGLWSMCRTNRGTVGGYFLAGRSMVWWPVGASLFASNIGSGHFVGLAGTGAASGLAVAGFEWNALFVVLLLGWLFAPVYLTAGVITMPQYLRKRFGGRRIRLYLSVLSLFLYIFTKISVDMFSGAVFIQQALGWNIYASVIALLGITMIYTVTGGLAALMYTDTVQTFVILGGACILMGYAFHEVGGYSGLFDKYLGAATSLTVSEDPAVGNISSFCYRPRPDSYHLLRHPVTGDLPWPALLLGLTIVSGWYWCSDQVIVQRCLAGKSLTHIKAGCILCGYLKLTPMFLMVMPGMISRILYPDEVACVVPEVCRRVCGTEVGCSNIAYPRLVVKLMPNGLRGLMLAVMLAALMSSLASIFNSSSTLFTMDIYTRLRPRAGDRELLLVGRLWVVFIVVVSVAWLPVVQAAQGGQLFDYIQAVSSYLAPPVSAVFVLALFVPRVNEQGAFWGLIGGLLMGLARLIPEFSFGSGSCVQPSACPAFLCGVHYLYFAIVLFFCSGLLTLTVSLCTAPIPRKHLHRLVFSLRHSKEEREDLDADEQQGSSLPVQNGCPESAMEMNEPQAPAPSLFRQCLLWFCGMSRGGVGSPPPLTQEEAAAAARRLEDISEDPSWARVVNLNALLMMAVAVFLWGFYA
protocol_notes: Cell-based 14C-AMG uptake inhibition assay, CHOK1 cells expressing human SGLT2
Parameters: expressed in transfected cells
run_conditions: CHOK1 cells stably expressing human SGLT2, 0.5 mM 14C-AMG, 30 min uptake; read-out: hSGLT2 (IC50, nM) [B]
Reported IC50 is given for each of the following compounds.
Form field: result (number plus unit)

**Q:** IC50 for OC[C@@H]1O[C@H](n2cc(Cc3ccc(C4CC4)cc3)c3c(F)cccc32)[C@@H](O)[C@H](O)[C@H]1O [Compound 2] ?
**A:** 1.9 nM

Continue with the compound presented below.
**Q:** # lookup: IC50 of CCc1ccc(Cc2cn([C@@H]3O[C@H](CO)[C@@H](O)[C@H](O)[C@H]3O)c3ccccc23)cc1 [Compound 1]
**A:** 8.4 nM
